System: HepG2
Experiment: cytotoxicity call (relative viability < 0.9)
Conditions: 10 µM
Screen size: about 39,000 compounds; about 3,300 (8.5%) were called active. Only a selection was taken, and actives are over-represented in it overall.
Output constraint: value belongs to active, inactive

COc1ccc(-c2c(C)oc3ccc(Cl)cc23)cc1    active
COc1ccc(S(=O)(=O)N(C)C[C@@H]2OCCCC[C@@H](C)Oc3ccc(NC(=O)Nc4ccc(C(F)(F)F)cc4)cc3C(=O)N([C@H](C)CO)C[C@@H]2C)cc1    inactive

INPUT: Could you kindly confirm the outcome this assay logged for COc1ccc(S(=O)(=O)N(C)C[C@@H]2OCCCC[C@H](C)Oc3ccc(NC(=O)Nc4ccc(C(F)(F)F)cc4)cc3C(=O)N([C@@H](C)CO)C[C@H]2C)cc1 ?
OUTPUT: inactive

INPUT: Could you kindly confirm the outcome this assay logged for N#Cc1ccccc1C#CCO ?
OUTPUT: inactive
